Test: Passive artificial membrane permeability (PAMPA)
Settings: PAMPA, pH 7.4
1.0 means recorded Papp at 50 μM is 0.2 ×10⁻⁶ cm/s or above; 0.0 means it is below 0.2 ×10⁻⁶ cm/s.

Does Papp at 50 μM meet or surpass 0.2 ×10⁻⁶ cm/s for O=C1CCSCc2cccc(n2)CSCCNC(=O)C2CN(C(=O)c3ccc(Cl)s3)CCN2C(=O)[C@H](CO)N1 (stereo partly shown) [compound 24] ?
0.0

Please indicate if the recorded Papp at 50 μM for O=C1C[C@H]2CCCN2C(=O)[C@H](Cc2ccccc2)NC(=O)[C@@H](NC(=O)c2ccc(Cl)s2)CCSCc2cccc(n2)CSCCN1 [compound 33] meets or exceeds 0.2 ×10⁻⁶ cm/s.
1.0

Kindly determine if Papp at 50 μM recorded for O=C1C[C@H]2CCCN2C(=O)[C@H](Cc2ccccc2)NC(=O)[C@@H](NC(=O)c2ccc(Cl)s2)CSC/C=C/CSCCN1 [peptide 32] is above or exactly 0.2 ×10⁻⁶ cm/s.
1.0

Papp at 50 μM >= 0.2 ×10⁻⁶ cm/s for O=C1C[C@H]2CCCN2C(=O)[C@H](Cc2ccccc2)NC(=O)[C@@H](NC(=O)c2ccc(Cl)s2)CSCc2cccc(n2)CSCCN1 [compound 31] ?
1.0

Exam item: decide whether the reported Papp at 50 μM for O=C1CCSCc2cccc(n2)CSCCNC(=O)[C@H](CO)NC(=O)[C@@H](NC(=O)c2ccc(Cl)s2)CN1 [compound 17] is at least 0.2 ×10⁻⁶ cm/s.
0.0

# bool: Papp at 50 μM of C[C@@H]1NC(=O)[C@@H](NC(=O)c2ccc(Cl)s2)CNC(=O)CCSCc2cccc(n2)CSCCNC1=O [compound 18] >= 0.2 ×10⁻⁶ cm/s
0.0

Determine whether this molecule has Papp at 50 μM no lower than 0.2 ×10⁻⁶ cm/s: O=C1C[C@H]2CCCN2C(=O)[C@H](Cc2ccccc2)NC(=O)[C@@H](NC(=O)c2ccc(Cl)cc2)CCC=CCCCCN1 (mixture of isomers) [peptide 46]
1.0

====

Assay: Metabolic stability in rat liver microsomes (RLMs)
Settings: rat, microsomes, CL (ul/min/mg protein) R3, RLM CL; replicate R3
parameter: microsomal CLint

Retrieve microsomal CLint measured for O=C1CCSCc2cccc(n2)CSCCNC(=O)C2CN(C(=O)c3ccc(Cl)s3)CCN2C(=O)[C@H](CO)N1 (some centres unmarked) [compound 24] and print it.
68.3 µL/min/mg

Please give measured microsomal CLint of the following entry: C[C@@H]1NC(=O)[C@@H](NC(=O)c2ccc(Cl)s2)CSCc2cccc(n2)CSCCNC(=O)[C@H]2CCCN(C2)C1=O [compound 30]
75.2 µL/min/mg

Specify reported microsomal CLint for the molecule shown: O=C(N[C@H]1CSCc2cccc(n2)CSCCNC(=O)[C@H](Cc2ccccn2)NC(=O)C2(CCCC2)NC1=O)c1ccc(Cl)s1 [compound 28]
78 µL/min/mg

Using known records, supply microsomal CLint for O=C1NCCSCc2cccc(n2)CSCCC(=O)N2CCC[C@H]2C(=O)N2CCN(C(=O)c3ccc(Cl)s3)CC12 (some centres unmarked) [compound 23]
77.1 µL/min/mg

# return recorded microsomal CLint for entry O=C1NCCSCc2cccc(n2)CSC[C@H](NC(=O)c2ccc(Cl)s2)C(=O)N[C@@H](CO)C(=O)NCc2ccc1cc2 [compound 25]
112 µL/min/mg

====

Provide the recorded Residual thrombin activity: Equilibrated sample for the entries that follow.
Molecular target: UniProt:P00734
Assay: Sub-library screen for active and permeable cyclic peptides (PAMPA plus thrombin inhibition)
Type: biochemical
Details: donor sample diluted to theoretical equilibrium (1 μM in assay); crude; slopes normalized to DMSO
Enter the number alone.

Quote Residual thrombin activity: Equilibrated sample reported for `N#Cc1ccc(C[C@@H]2NC(=O)[C@@H](NC(=O)c3ccc(Cl)s3)CCSCc3ccccc3CSCCNC(=O)C[C@H]3CCCN3C2=O)cc1` please.
91.7

Look up Residual thrombin activity: Equilibrated sample of `N#Cc1ccc(C[C@@H]2NC(=O)[C@@H](NC(=O)c3ccc(Cl)s3)CSCc3cccc(c3)CSCCNC(=O)C[C@H]3CCCN3C2=O)cc1` and report it.
97.2

Tell me Residual thrombin activity: Equilibrated sample reported for `O=C1C[C@H]2CCCN2C(=O)[C@@H](Cc2ccccc2)NC(=O)[C@@H](NC(=O)c2ccc(Cl)s2)CCCSC/C=C/CSCCN1`
98.3

Dear colleague, please send me the reported Residual thrombin activity: Equilibrated sample for `O=C1C[C@H]2CCCN2C(=O)[C@H](Cc2ccc(C(F)(F)F)cc2)NC(=O)[C@@H](NC(=O)c2ccc(Cl)s2)CCCSCc2ccccc2CSCCN1` when you can.
97.7

Return Residual thrombin activity: Equilibrated sample for the following compound: `Cc1cccc(C[C@@H]2NC(=O)[C@@H](NC(=O)c3ccc(Cl)s3)CSCc3ccc(cc3)CSCCNC(=O)C[C@H]3CCCN3C2=O)c1`
90.2

Give Residual thrombin activity: Equilibrated sample for `O=C1C[C@H]2CCCN2C(=O)[C@H](Cc2ccc(C(F)(F)F)cc2)NC(=O)[C@@H](NC(=O)c2ccc(Cl)s2)CCSCc2cccc(n2)CSCCN1`
97.7

====

Target: porcine pepsin (Sus scrofa)
Construct: 0.32 g of porcine pepsin (Sigma-Aldrich, P7125) was dissolved under gentle agitation; purchased Sigma-Aldrich P7125
Sequence (P00791 60-385): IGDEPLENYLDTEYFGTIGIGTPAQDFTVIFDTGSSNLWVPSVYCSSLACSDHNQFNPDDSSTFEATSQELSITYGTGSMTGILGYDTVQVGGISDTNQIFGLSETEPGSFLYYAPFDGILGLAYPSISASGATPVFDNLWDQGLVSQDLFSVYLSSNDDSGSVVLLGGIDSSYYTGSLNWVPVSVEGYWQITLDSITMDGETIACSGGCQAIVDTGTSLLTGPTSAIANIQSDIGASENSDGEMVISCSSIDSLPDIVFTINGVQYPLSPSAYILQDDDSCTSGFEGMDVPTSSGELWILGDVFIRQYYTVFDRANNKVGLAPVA
Test: Peptide stability in simulated gastric fluid (SGF)
Assay type: in vitro ADME
Details: after 8 h vs 0 h (TIC); average of R1-R3
parameter: SGF stability, Residual peptide Average
Give the value as a plain number.

Report SGF stability, Residual peptide Average for `O=C(N[C@H]1CSCc2cccc(n2)CSCCNC(=O)[C@H](Cc2c[nH]cn2)NC(=O)C2(CCCC2)NC1=O)c1ccc(Cl)s1`
100.77

Name the recorded SGF stability, Residual peptide Average of the item `C[C@@H]1NC(=O)[C@@H](NC(=O)c2ccc(Cl)s2)CNC(=O)CCSCc2cccc(n2)CSCCNC1=O` in your answer.
99.57

Give reported SGF stability, Residual peptide Average value for `O=C(N[C@H]1CSCCS(=O)(=O)CCSCCNC(=O)C2(CC2)CNC(=O)[C@H](Cc2ccccc2)NC1=O)c1ccc(Cl)s1`
98.52

# return recorded SGF stability, Residual peptide Average for entry `O=C1C[C@H]2CCCN2C(=O)[C@H](Cc2ccccc2)NC(=O)[C@@H](NC(=O)c2ccc(Cl)s2)CCSC/C=C/CSCCN1`
99.21

Please give measured SGF stability, Residual peptide Average of the following entry: O=C1NCCSCc2cccc(n2)CSCCC(=O)N2CCC[C@H]2C(=O)N2CCN(C(=O)c3ccc(Cl)s3)CC12 (some centres unmarked)
98.66

====

Assay: Passive artificial membrane permeability (PAMPA)
Conditions: PAMPA; replicate R1; TIC of top well sample relative to sample at theoretical equilibrium
parameter: Permeability% R1
A complete answer gives the number and then names the unit.

Recall and state the measured Permeability% R1 for O=C1CCSCc2cccc(n2)CSCCNC(=O)C2CN(C(=O)c3ccc(Cl)s3)CCN2C(=O)[C@H](CO)N1 (stereo partly shown) .
0.0459%

Name the recorded Permeability% R1 of the compound listed here: `C[C@@H]1NC(=O)[C@@H](NC(=O)c2ccc(Cl)s2)CSCc2cccc(n2)CSCCNC(=O)c2ccc(cc2)CNC1=O`
2.49%

Quote Permeability% R1 reported for `C[C@@H]1NC(=O)[C@@H](NC(=O)c2ccc(Cl)s2)CNC(=O)CCSCc2cccc(n2)CSCCNC1=O` please.
2.77%

Read off the recorded Permeability% R1 for `O=C(N[C@H]1CSCc2cccc(n2)CSCCNC(=O)[C@H](Cc2ccccn2)NC(=O)C2(CCCC2)NC1=O)c1ccc(Cl)s1`
35.05%

Give the value of Permeability% R1 reported for the following: `CN1CCC(=O)NCCSCCS(=O)(=O)CCSC[C@H](NC(=O)c2ccc(Cl)s2)C(=O)N[C@@H](Cc2ccccc2)C1=O`
2.04%

Provide only the value of recorded Permeability% R1 for `O=C1CCSC/C=C/CSCCNC(=O)[C@H](CNC(=O)c2ccc(Cl)s2)NC(=O)[C@H](Cc2ccccn2)N1`
9.36%

Report measured Permeability% R1; entry is O=C1NCCSCc2cccc(n2)CSCCC(=O)N2CCC[C@H]2C(=O)N2CCN(C(=O)c3ccc(Cl)s3)CC12 (stereo partly shown)
59.23%

====

Would you mind telling me the reported half-life of each entry?
Assay: Metabolic stability in rat liver microsomes (RLMs)
Settings: rat, microsomes, Half Life Mean, rat liver microsomes, mean of R1-R3
Output spec: scalar in min, unitless text.

Assign half-life to the following record: `CN1CCC(=O)NCCSCC(=O)CSC[C@H](NC(=O)c2cccc(C(F)(F)F)c2)C(=O)N2CCC[C@@H](C2)C1=O`
37.4

Read off the recorded half-life for NC(=O)NCCC[C@@H]1NC(=O)C2CN(CCN2C(=O)C2CCCN2S(=O)(=O)c2ccc(F)cc2)C(=O)CCSC/C=C/CSCCNC1=O (stereo partly shown) [peptide 4]
34.6

Using known records, supply half-life for COc1ccc(CC(=O)N[C@H]2Cc3ccc(cc3)CNC(=O)c3cccc(c3)CNC(=O)CCSCc3ccc(cc3)CSCCNC2=O)cc1OC [peptide 3]
16.9

Specify measured half-life for O=C1CC2CCN(CC2)C(=O)[C@@H](NC(=O)c2cc(F)cc(F)c2)CSCc2ccc(cc2)CSCCNC(=O)[C@H](Cc2ccccc2)N1 [peptide 1] .
11.5

Identify measured half-life associated with `Cn1nccc1C(=O)N1CCC2(CC1)NC(=O)[C@H](CC1CCCCC1)NC(=O)CCSCc1cccc(n1)CSCCNC2=O`
22.3
